Target: T1, full-length untagged human GPNMB expressed on cells (human, UniProt Q14956 23-572)
T1 construct: also used here for GPNMB on human monocyte-derived macrophages in the functional assays; also called huGPNMB; Freestyle293-huGPNMB+
T1 sequence: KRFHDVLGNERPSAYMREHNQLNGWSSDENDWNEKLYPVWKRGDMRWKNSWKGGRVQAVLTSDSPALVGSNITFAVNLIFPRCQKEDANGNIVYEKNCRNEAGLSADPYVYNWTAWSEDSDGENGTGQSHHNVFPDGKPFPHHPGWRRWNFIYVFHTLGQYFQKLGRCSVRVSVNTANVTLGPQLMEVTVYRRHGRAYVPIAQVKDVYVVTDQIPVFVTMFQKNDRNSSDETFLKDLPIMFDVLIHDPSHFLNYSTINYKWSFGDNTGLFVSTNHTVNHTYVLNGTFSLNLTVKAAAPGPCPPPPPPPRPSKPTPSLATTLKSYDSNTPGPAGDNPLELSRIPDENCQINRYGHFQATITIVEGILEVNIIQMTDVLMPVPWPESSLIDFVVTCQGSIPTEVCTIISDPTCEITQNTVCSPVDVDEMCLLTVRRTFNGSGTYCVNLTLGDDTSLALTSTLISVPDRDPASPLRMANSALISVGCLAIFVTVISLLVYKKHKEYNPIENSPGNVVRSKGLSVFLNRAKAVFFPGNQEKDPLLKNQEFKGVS
Test: FACS, FS293-huGPNMB+ cells
Property Label: MFI fold over background (fold)
The reply should be a number in fold, with the unit left off.

Noted for anti-GPNMB antibody GPN-41 (antibody, human IgG1, V domains shown, chimeric) VH: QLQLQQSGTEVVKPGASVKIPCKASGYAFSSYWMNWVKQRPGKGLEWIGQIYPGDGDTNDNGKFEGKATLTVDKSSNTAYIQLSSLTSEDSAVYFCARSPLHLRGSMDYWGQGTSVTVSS VL: SIVMTQTPKFLLVSAGDRVTITCKASQSVSNDVAWFQQKPGQSPELLIYSASNRYTGVPDRFTASGYGTDFTFTISAVQAEDLAVYFCQQNYYSPFTFGGGTRLEIK : its MFI fold over background reads 23.6

get_value(item= anti-GPNMB antibody GPN-11 (antibody, human IgG1, V domains shown, chimeric) VH: QVQLQQPGAELVKPGASVKLSCKASGYTFTSYWMHWVKQRPGQGLEWIGEINSSNGRTNYNEKFKTKATLTVDRSSSTAYMQLSSLTSEDSAVYYCARLGYYSGSPYPYYAMDCWGQGTSVTVSS VL: DIQMTQSPASLSVSVGETVTITCRASENIYSNLAWYQQKQGKSPQLLVYAATNLADGVPSRFSGSGSGTQYSLKINSLQSEDFGSYYCQHFWNTPPTFGGGTKLEIK , readout=MFI fold over background) returns 56.2

Noted for anti-GPNMB antibody GPN-09 (antibody, human IgG1, V domains shown, chimeric) VH: QVQLQQSGAELVKPGASVKLSCKASGYTFTSYYIYWVKQRPGQGLEWIGEINPSNGGTYFNEKFKNKATLTVDKSSSTAYMQLSSLTSEDSAVYYCTRGGNYYAYWGQGTLVTVSA VL: DIQMTQSPSSLSASLGERVSLTCRASQEISGHLGWLQQKPDGTIKRLIYAALTLDSGVPKRFSGSRSGSDYSLTISSLESEDFADYYCLQYASYPYTFGGGTKLEIK : its MFI fold over background reads 35.1

The measurements presented in this section are drawn from patent US20250270343A1.
